- PROCEDURE SUMMARY: Induction of nitric oxide release in potassium phosphate buffer at pH 7.4 at 0.1 mM after 150 mins by Griess assay
- Assay type: physicochemical
- EXPERIMENTAL CONTEXT: pH 7.4, 2.5 h, 100 µM
// values below are reported Activity
Quote the value and follow it with the unit of measurement.

Solved entries:
{"columns": ["COMPOUND", "READOUT LABEL", "RESULT VALUE"],
 "data": [
  ["CCCCC(OC(=O)CN1CCN(CCCCCOc2ccc(-c3cc(=S)ss3)cc2)CC1)c1ccccc1C(=O)Oc1ccc(/C=C/C(=O)OCCO[N+](=O)[O-])cc1OC (racemic)", "Activity", "10.23 µM"],
  ["CCCCC(OC(=O)CN1CCN(CCCOc2ccc(-c3cc(=S)ss3)cc2)CC1)c1ccccc1C(=O)Oc1ccc(/C=C/C(=O)OCCCCO[N+](=O)[O-])cc1OC (racemic)", "Activity", "3.25 µM"],
  ["CCCCC(OC(=O)CN1CCN(CCCCOc2ccc(-c3cc(=S)ss3)cc2)CC1)c1ccccc1C(=O)Oc1ccc(/C=C/C(=O)OCCCCO[N+](=O)[O-])cc1OC (racemic)", "Activity", "8.32 µM"]
]}

Turning now to a further record.
Form: compound = CCCCC(OC(=O)CN1CCN(CCCCOc2ccc(-c3cc(=S)ss3)cc2)CC1)c1ccccc1C(=O)Oc1ccc(/C=C/C(=O)OCCCCCCO[N+](=O)[O-])cc1OC (racemic) ; Activity = 5.3 µM

###

- PROCEDURE SUMMARY: Induction of nitric oxide release in potassium phosphate buffer at pH 7.4 at 0.1 mM after 300 mins by Griess assay
- Format: physicochemical
- EXPERIMENTAL CONTEXT: pH 7.4, 5 h, 100 µM
Friendly reminder: Activity below 8 µM is TRUE, at or above is FALSE.

{"columns": ["MOLECULE", "CLASS ASSIGNMENT"],
 "data": [
  ["CCCCC(OC(=O)CN1CCN(CCCCCCOc2ccc(-c3cc(=S)ss3)cc2)CC1)c1ccccc1C(=O)Oc1ccc(/C=C/C(=O)OCCCCO[N+](=O)[O-])cc1OC (racemic)", "TRUE"],
  ["CCCCC(OC(=O)CN1CCN(CCOc2ccc(-c3cc(=S)ss3)cc2)CC1)c1ccccc1C(=O)Oc1ccc(/C=C/C(=O)OCCCCCCO[N+](=O)[O-])cc1OC (racemic)", "FALSE"],
  ["CCCCC(OC(=O)CN1CCN(CCCCOc2ccc(-c3cc(=S)ss3)cc2)CC1)c1ccccc1C(=O)Oc1ccc(/C=C/C(=O)OCCCCO[N+](=O)[O-])cc1OC (racemic)", "FALSE"],
  ["CCCCC(OC(=O)CN1CCN(CCCCCOc2ccc(-c3cc(=S)ss3)cc2)CC1)c1ccccc1C(=O)Oc1ccc(/C=C/C(=O)OCCO[N+](=O)[O-])cc1OC (racemic)", "FALSE"]
]}

In the following, a different molecule is considered.
Q. hey, is Activity for CCCCC(OC(=O)CN1CCN(CCCCOc2ccc(-c3cc(=S)ss3)cc2)CC1)c1ccccc1C(=O)Oc1ccc(/C=C/C(=O)OCCCCCCO[N+](=O)[O-])cc1OC (racemic) lower than 8 µM or not?
A. TRUE

###

Listing of entries alongside the reported Activity.
- PROCEDURE SUMMARY: Induction of nitric oxide release in potassium phosphate buffer at pH 7.4 at 0.1 mM after 90 mins by Griess assay
- Format: physicochemical
- EXPERIMENTAL CONTEXT: pH 7.4, 1.5 h, 100 µM
Output spec: scalar in µM, unitless text.

# Activity of CCCCC(OC(=O)CN1CCN(CCCCCCOc2ccc(-c3cc(=S)ss3)cc2)CC1)c1ccccc1C(=O)Oc1ccc(/C=C/C(=O)OCCCCO[N+](=O)[O-])cc1OC (racemic) = 4.8

Record CCCCC(OC(=O)CN1CCN(CCCCOc2ccc(-c3cc(=S)ss3)cc2)CC1)c1ccccc1C(=O)Oc1ccc(/C=C/C(=O)OCCCCCCO[N+](=O)[O-])cc1OC (racemic) , field Activity: 4.68

Kindly note the recorded Activity for CCCCC(OC(=O)CN1CCN(CCCCCCOc2ccc(-c3cc(=S)ss3)cc2)CC1)c1ccccc1C(=O)Oc1ccc(/C=C/C(=O)OCCCCCCO[N+](=O)[O-])cc1OC (racemic) , which is 9.11
